- target-system: Serine/threonine-protein kinase mTOR (Homo sapiens)
- protocol-notes: Inhibition of mTOR-mediated AKT phosphorylation at serine 473 in human MDA-MB-468 cells
- Type: cell-based
pIC50: −log10 of the molar value.
measured-parameter: pIC50

Sample records with pIC50:
Inquiry: Fill in the blank: the reported pIC50 of CS(=O)(=O)C1(c2cc(N3CCOCC3)nc(-c3cccc4[nH]ccc34)n2)CCNCC1 is ____.
Reply text: 5.82

Inquiry: Try CS(=O)(=O)C1(c2cc(N3CCOCC3)nc(-c3cccc4[nH]ccc34)n2)CC1 next.
Reply text: 5.49

Inquiry: Same read-out for CC(C)(c1cc(N2CCOCC2)nc(-c2cccc3[nH]ccc23)n1)S(C)(=O)=O ?
Reply text: 5.57

1 = CS(=O)(=O)Cc1cc(N2CCOCC2)nc(-c2cccc3[nH]ccc23)n1
2 = CS(=O)(=O)C1(c2cc(N3CCOCC3)nc(-c3cccc4[nH]ccc34)n2)CCOCC1
Inquiry: Which has the higher pIC50, 1 or 2 ? Answer with the label corresponding to your selection.
Reply text: 2

Origin of the recorded values: ChEMBL document CHEMBL2321758
